Quick reference for koff among some binders
measured-on: T1, cynomolgus monkey BCMA (cynomolgus monkey, UniProt A0A2K5UD97 1-53)
T1 construct: Soluble analyte in SPR; construct not described; also called cyBCMA; Cyno BCMA
test: SPR, IgG on chip, cyBCMA analyte
Write down the numeric answer in s⁻¹ and omit the unit.

[[record]]
binder = "C01_Rd4_6nM_C09 (antibody, V domains shown, IgG) VH: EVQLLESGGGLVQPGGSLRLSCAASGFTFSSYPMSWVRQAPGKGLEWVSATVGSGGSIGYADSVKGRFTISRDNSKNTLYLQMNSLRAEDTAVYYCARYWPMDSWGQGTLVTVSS VL: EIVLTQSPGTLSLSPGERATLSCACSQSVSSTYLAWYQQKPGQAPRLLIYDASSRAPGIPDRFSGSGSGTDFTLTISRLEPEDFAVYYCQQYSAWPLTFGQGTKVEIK"
result_number = 0.00868


[ask] Please report the recorded koff for COMBO_Rd4_0.6nM_C20 (antibody, V domains shown, IgG) VH: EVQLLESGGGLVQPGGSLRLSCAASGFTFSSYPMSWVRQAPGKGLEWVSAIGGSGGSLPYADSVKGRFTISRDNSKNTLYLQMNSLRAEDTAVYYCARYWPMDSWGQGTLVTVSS VL: EIVLTQSPGTLSLSPGERATLSCRASQSVSYLYLAWYQQKPGQAPRLLMYDASIRATGIPDRFSGSGSGTDFTLTISRLEPEDFAVYYCQQYMEWPLTFGQGTKVEIK .
[reply] 0.000284

[ask] Please report the recorded koff for P5A2_VHVL (antibody, V domains shown, IgG) VH: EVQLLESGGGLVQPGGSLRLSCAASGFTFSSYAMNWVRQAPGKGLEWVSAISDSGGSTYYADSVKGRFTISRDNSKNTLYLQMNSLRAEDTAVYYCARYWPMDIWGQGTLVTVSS VL: EIVLTQSPGTLSLSPGERATLSCRASQSVSSSYLAWYQQKPGQAPRLLMYDASIRATGIPDRFSGSGSGTDFTLTISRLEPEDFAVYYCQQYGSWPLTFGQGTKVEIK .
[reply] 0.0164
